Origin of values: paper PMC9482650

biological target: GOPC, Q9HD26; assay: holdup assay; parameters: key: below the threshold = too weak to quantify, mostly under pKd 3.1 to 4; conditions: plain residues with an end cap or a label only (N-terminal biotin on a linker: ado-ado)
assay.readout: pKd

Solved cases (5 shown):
TKEIPNCTSV [SORCS3, Q9UPU3] ... 3.95
EKPIDSETKM [SLC1A3, P43003] ... below the threshold
KAEEKPPSKV [SCN4B, Q8IWT1] ... below the threshold
LVEEEEPMNL [HDAC7, Q8WUI4] ... below the threshold
SRPHTNETSL [MCC, P23508] ... 3.9

Report pKd for each item below.
1. DAAHHDESNC [FMNL3, Q8IVF7]
2. RSPVATATSC [DUSP5, Q16690]
3. PSDSVGKDVF [EGLN1, Q9GZT9]
4. FLVTEFNVML [DFNB31, Q9P202]

[out]
["below the threshold", "below the threshold", "below the threshold", "below the threshold"]
